Test: mn = molality of the nth substance listed, in mol/kg
Settings: 308.15 K; 100 kPa; Liquid; Frequency=3 MHz; Sing-around technique in a fixed-path interferometer; m1 = 0.01
Below, each entry is listed alongside its reported speed of sound.
Number in m/s, nothing else.

# count of solved cases: 3
INSERT INTO assay_data (molecule, experimental_endpoint, observed_value) VALUES
  ('COc1cc(-c2cc(-c3ccccc3)[nH]c(=O)c2C#N)ccc1O + C[S+](C)[O-]', 'speed of sound', 1451.9),
  ('COc1cc(-c2cc(-c3ccccc3O)[nH]c(=O)c2C#N)ccc1O + C[S+](C)[O-]', 'speed of sound', 1452.1),
  ('COc1cc(-c2cc(-c3ccc(O)cc3)[nH]c(=O)c2C#N)ccc1O + C[S+](C)[O-]', 'speed of sound', 1452.4);

Please examine the following record next.
stdin: Report speed of sound, nothing else, for this molecule: COc1cc(-c2cc(-c3ccc(Cl)cc3)[nH]c(=O)c2C#N)ccc1O + C[S+](C)[O-]
stdout: 1452.4

----------
Assay: mn = molality of the nth substance listed, in mol/kg
Details: 298.15 K; 100 kPa; Liquid; Capillary tube (Ostwald / Ubbelohde) method; m1 = 0.1
Experimental Endpoint: viscosity (mPa·s)
Number in mPa·s, nothing else.

stdin: Report viscosity, nothing else, for this molecule: COc1cc(-c2cc(-c3ccc(O)cc3)[nH]c(=O)c2C#N)ccc1O + C[S+](C)[O-]
stdout: 2.323

stdin: Report viscosity, nothing else, for this molecule: COc1cc(-c2cc(-c3ccccc3)[nH]c(=O)c2C#N)ccc1O + C[S+](C)[O-]
stdout: 2.107

stdin: Report viscosity, nothing else, for this molecule: COc1cc(-c2cc(-c3ccc(Cl)cc3)[nH]c(=O)c2C#N)ccc1O + C[S+](C)[O-]
stdout: 2.172

stdin: Report viscosity, nothing else, for this molecule: COc1cc(-c2cc(-c3ccccc3O)[nH]c(=O)c2C#N)ccc1O + C[S+](C)[O-]
stdout: 2.301

----------
Assay: mn = molality of the nth substance listed, in mol/kg
Conditions: 308.15 K; 100 kPa; Liquid; Vibrating tube method; m1 = 0.08
Experimental Endpoint: mass density (kg/m3)
Number in kg/m3, nothing else.

# count of solved cases: 3
INSERT INTO assay_data (compound, unit_text, observed_value) VALUES
  ('COc1cc(-c2cc(-c3ccccc3O)[nH]c(=O)c2C#N)ccc1O + C[S+](C)[O-]', 'kg/m3', 1090.65),
  ('COc1cc(-c2cc(-c3ccc(Cl)cc3)[nH]c(=O)c2C#N)ccc1O + C[S+](C)[O-]', 'kg/m3', 1091.08),
  ('COc1cc(-c2cc(-c3ccccc3)[nH]c(=O)c2C#N)ccc1O + C[S+](C)[O-]', 'kg/m3', 1089.59);

Please examine the following record next.
stdin: Report mass density, nothing else, for this compound: COc1cc(-c2cc(-c3ccc(O)cc3)[nH]c(=O)c2C#N)ccc1O + C[S+](C)[O-]
stdout: 1090.67

----------
Assay: mn = molality of the nth substance listed, in mol/kg
Settings: 318.15 K; 100 kPa; Liquid; Frequency=3 MHz; Sing-around technique in a fixed-path interferometer; m1 = 0.01
Below, each entry is listed alongside its reported speed of sound.
Number in m/s, nothing else.

INSERT INTO results (compound, experimental_endpoint, observed_value) VALUES
  ('COc1cc(-c2cc(-c3ccc(Cl)cc3)[nH]c(=O)c2C#N)ccc1O + C[S+](C)[O-]', 'speed of sound', 1418.9),
  ('COc1cc(-c2cc(-c3ccccc3)[nH]c(=O)c2C#N)ccc1O + C[S+](C)[O-]', 'speed of sound', 1418.1),
  ('COc1cc(-c2cc(-c3ccccc3O)[nH]c(=O)c2C#N)ccc1O + C[S+](C)[O-]', 'speed of sound', 1418.6);

stdin: Report speed of sound, nothing else, for this compound: COc1cc(-c2cc(-c3ccc(O)cc3)[nH]c(=O)c2C#N)ccc1O + C[S+](C)[O-]
stdout: 1419
